Where these numbers come from: patent US20230416329A1

Below: a set of entries, each annotated with reported Residual trypsin activity.
- measured on: bovine trypsin (Bos taurus, UniProt P00760)
- Sequence (P00760 24-246): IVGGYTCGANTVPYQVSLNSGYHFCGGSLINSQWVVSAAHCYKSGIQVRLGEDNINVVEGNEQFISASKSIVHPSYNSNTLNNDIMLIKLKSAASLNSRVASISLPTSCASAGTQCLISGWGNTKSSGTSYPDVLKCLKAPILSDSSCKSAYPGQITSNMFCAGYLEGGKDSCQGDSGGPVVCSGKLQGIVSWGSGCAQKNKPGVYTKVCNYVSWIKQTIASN
- assay summary: Trypsin inhibitory activity of peptides (BApNA hydrolysis, OD405; IC50, Ki, residual activity)
- Assay type: biochemical
- condition info: peptide 0.098 μM
Bridge positions count the residues as written; N and C are the ends. Square brackets hold non-standard residues; d marks the D form. Peptide text beside a SMILES is read from it. Nle = CCCC[C@H](N)C(=O)O
experimental readout: Residual trypsin activity (%)

- compound: "CC[C@H](C)[C@@H]1NC(=O)[C@@H]2CCCN2C(=O)[C@@H]2CCCN2C(=O)[C@H]([C@@H](C)CC)NC(=O)[C@H](CO)NC(=O)[C@H](CCCCN)NC(=O)[C@H](C)NC(=O)[C@H](C)NC(=O)[C@H](CCCNC(=N)N)NC(=O)CNC(=O)[C@@H](N)CSSC[C@@H](C(=O)N[C@@H](Cc2ccccc2)C(=O)O)NC1=O [BT26] (H-CGRAAKSIPPICF-OH; disulfide 1-12; N-terminus and C-terminus assumed)"
  reading unit: "%"
  number: 100.2
- compound: "CCCC[C@@H]1NC(=O)[C@H](CO)NC(=O)[C@H](CCCCN)NC(=O)[C@H]([C@@H](C)O)NC(=O)[C@H](C)NC(=O)[C@H](CCCNC(=N)N)NC(=O)CNC(=O)[C@@H](N)CSSC[C@@H](C(=O)N[C@@H](Cc2ccccc2)C(=O)O)NC(=O)[C@H]([C@@H](C)CC)NC(=O)[C@@H]2CCCN2C(=O)[C@@H]2CCCN2C1=O [BT28] (H-CGRATKS[Nle]PPICF-OH; disulfide 1-12; C-terminus assumed)"
  reading unit: "%"
  number: 92.2

---

- measured on: α-chymotrypsin (Bos taurus)
Bridge positions count the residues as written; N and C are the ends. Peptide text beside a SMILES is read from it.
experimental readout: IC50

- molecule: "CC[C@H](C)[C@@H]1NC(=O)[C@H](CO)NC(=O)[C@H](Cc2ccc(O)cc2)NC(=O)[C@H]([C@@H](C)O)NC(=O)[C@H](C)NC(=O)[C@H](Cc2ccc(O)cc2)NC(=O)CNC(=O)[C@@H](N)CSSC[C@@H](C(=O)N[C@@H](Cc2ccc(O)cc2)C(=O)NCC(=O)O)NC(=O)[C@H](CCC(N)=O)NC(=O)[C@@H]2CCCN2C(=O)[C@@H]2CCCN2C1=O [CH30] (H-CGYATYSIPPQCYG-OH; disulfide 1-12)"
  experimental readout: "IC50"
  result: "> 50 µM"

---

Below: a set of entries, each annotated with reported IC50.
- measured on: α-chymotrypsin (Bos taurus)
Bridge positions count the residues as written; N and C are the ends. Square brackets hold non-standard residues; d marks the D form. Peptide text beside a SMILES is read from it. Hyp = O=C(O)[C@@H]1C[C@@H](O)CN1

- compound: "CC[C@H](C)[C@@H]1NC(=O)[C@H](CO)NC(=O)[C@H](Cc2ccc(O)cc2)NC(=O)[C@H]([C@@H](C)O)NC(=O)[C@@H](NC(=O)[C@@H](N)Cc2ccccc2)CSSC[C@@H](C(=O)N[C@@H](Cc2ccc(O)cc2)C(=O)NCC(=O)O)NC(=O)[C@H](CCC(N)=O)NC(=O)[C@@H]2CCCN2C(=O)[C@@H]2C[C@@H](O)CN2C1=O [CH53, FCTYSIHypPQCYG] (H-FCTYSI[Hyp]PQCYG-OH; disulfide 2-10; C-terminus assumed)"
  measured on: "α-chymotrypsin (Bos taurus)"
  IC50: "250 nM"
- compound: "CC[C@H](C)[C@@H]1NC(=O)[C@H](CO)NC(=O)[C@H](Cc2ccc(O)cc2)NC(=O)[C@H]([C@@H](C)O)NC(=O)[C@H](C)NC(=O)[C@H]([C@@H](C)O)NC(=O)CNC(=O)[C@@H](N)CSSC[C@@H](C(=O)N[C@@H](Cc2ccc(O)cc2)C(=O)NCC(=O)O)NC(=O)[C@H](CCC(N)=O)NC(=O)[C@@H]2CCCN2C(=O)[C@@H]2CCCN2C1=O [CH22] (H-CGTATYSIPPQCYG-OH; disulfide 1-12; N-terminus and C-terminus assumed)"
  measured on: "α-chymotrypsin (Bos taurus)"
  IC50: "> 50000 nM"

---

- measured on: bovine trypsin (Bos taurus, UniProt P00760)
- assay summary: Trypsin inhibitory activity of peptides (BApNA hydrolysis, OD405; IC50, Ki, residual activity)
- Assay type: biochemical
- condition info: Ki=IC50/(1+S/Km), Km 0.33 mM; read-out: Ki
pKi: −log10 of the molar value. Bridge positions count the residues as written; N and C are the ends. Peptide text beside a SMILES is read from it.

- compound: "CC(C)C[C@@H]1NC(=O)[C@H](CO)NC(=O)[C@H](CCCCN)NC(=O)[C@H]([C@@H](C)O)NC(=O)[C@@H](NC(=O)[C@@H](N)CCCNC(=N)N)CSSC[C@@H](C(=O)N[C@@H](CO)C(=O)O)NC(=O)[C@H](CCC(N)=O)NC(=O)[C@@H]2CCCN2C(=O)[C@@H]2CCCN2C1=O [BT65] (H-RCTKSLPPQCS-OH; disulfide 2-10; C-terminus assumed)"
  pKi: 6.89
- compound: "CC[C@H](C)[C@@H]1NC(=O)[C@@H]2CCCN2C(=O)[C@@H]2CCCN2C(=O)[C@H]([C@@H](C)CC)NC(=O)[C@H](CO)NC(=O)[C@H](CCCCN)NC(=O)[C@H]([C@@H](C)O)NC(=O)[C@H](C)NC(=O)[C@H](CCCNC(=N)N)NC(=O)[C@H](C)NC(=O)[C@@H](N)CSSC[C@@H](C(=O)N[C@@H](Cc2ccccc2)C(=O)O)NC1=O [BT67] (H-CARATKSIPPICF-OH; disulfide 1-12)"
  pKi: 8.00

---

- measured on: α-chymotrypsin (Bos taurus, UniProt P00766)
pKi: −log10 of the molar value. Bridge positions count the residues as written; N and C are the ends. Peptide text beside a SMILES is read from it.
experimental readout: pKi

- compound: "CC[C@H](C)[C@@H]1NC(=O)[C@H](CO)NC(=O)[C@H](Cc2ccc(O)cc2)NC(=O)[C@H]([C@@H](C)O)NC(=O)[C@H](C)NC(=O)[C@H](C)NC(=O)CNC(=O)[C@@H](N)CSSC[C@@H](C(=O)N[C@@H](Cc2ccccc2)C(=O)O)NC(=O)[C@H](CCCCN)NC(=O)[C@H](C)NC(=O)[C@@H]2CCCN2C1=O [CH31] (H-CGAATYSIPAKCF-OH; disulfide 1-12; N-terminus and C-terminus assumed)"
  experimental readout: "pKi"
  number: 5.58

---

- measured on: bovine trypsin (Bos taurus)
- assay summary: Trypsin inhibitory activity of peptides (BApNA hydrolysis, OD405; IC50, Ki, residual activity)
- Format: biochemical
- condition info: peptide 0.098 μM
- Description: The substrates N-succinyl-Ala-Ala-Pro-Phe-p-nitroaniline (AAPFpNA), Nα—Benzoyl-L-arginine-4-nitroaniline hydrochloride (BApNA) and N-succinyl-[…] (AAApNA) are used in competitive binding reaction to determine the inhibitory activities against α-chymotrypsin, bovine trypsin, and porcine pancreatic elastase, respectively. […] The concentration of the peptide was measured using optical density (OD) at 280 nm. […]
Bridge positions count the residues as written; N and C are the ends. Peptide text beside a SMILES is read from it.
experimental readout: Residual trypsin activity

- molecule: "CC[C@H](C)[C@@H]1NC(=O)[C@H](C)NC(=O)[C@@H]2CCCN2C(=O)[C@H]([C@@H](C)CC)NC(=O)[C@H](CO)NC(=O)[C@H](CCCCN)NC(=O)[C@H]([C@@H](C)O)NC(=O)[C@H](C)NC(=O)[C@H](CCCNC(=N)N)NC(=O)CNC(=O)[C@@H](N)CSSC[C@@H](C(=O)N[C@@H](Cc2ccccc2)C(=O)O)NC1=O [BT10] (H-CGRATKSIPAICF-OH; disulfide 1-12)"
  result: "55.6 ± 2.3%"
- molecule: "CC[C@H](C)[C@@H]1NC(=O)[C@@H]2CCCN2C(=O)[C@@H]2CCCN2C(=O)[C@H]([C@@H](C)CC)NC(=O)[C@H](CO)NC(=O)[C@H](CCCCN)NC(=O)[C@H]([C@@H](C)O)NC(=O)[C@H](C)NC(=O)[C@H](CCCNC(=N)N)NC(=O)CNC(=O)[C@@H](N)CSSC[C@@H](C(=O)N[C@@H](Cc2ccccc2)C(=O)N2CCC[C@H]2C(=O)N[C@@H](CC(=O)O)C(=O)O)NC1=O [BT5] (H-CGRATKSIPPICFPD-OH; disulfide 1-12; N-terminus and C-terminus assumed)"
  result: "75.2 ± 5.9%"
- molecule: "CC[C@H](C)[C@@H]1NC(=O)[C@@H]2CCCN2C(=O)[C@@H]2CCCN2C(=O)[C@H]([C@@H](C)CC)NC(=O)[C@H](CO)NC(=O)[C@H](CCCCN)NC(=O)[C@H]([C@@H](C)O)NC(=O)[C@H](CO)NC(=O)[C@H](CCCNC(=N)N)NC(=O)CNC(=O)[C@@H](N)CSSC[C@@H](C(=O)N[C@@H](Cc2ccccc2)C(=O)O)NC1=O [BT47] (H-CGRSTKSIPPICF-OH; disulfide 1-12; C-terminus assumed)"
  result: "5.6 ± 0.7%"
- molecule: "CC[C@H](C)[C@@H]1NC(=O)[C@@H]2CCCN2C(=O)[C@@H]2CCCN2C(=O)[C@H]([C@@H](C)CC)NC(=O)[C@H](CO)NC(=O)[C@H](CCCCN)NC(=O)[C@H]([C@@H](C)O)NC(=O)[C@H](Cc2ccc(O)cc2)NC(=O)[C@H](CCCNC(=N)N)NC(=O)CNC(=O)[C@@H](N)CSSC[C@@H](C(=O)N[C@@H](Cc2ccccc2)C(=O)O)NC1=O [BT53] (H-CGRYTKSIPPICF-OH; disulfide 1-12; C-terminus assumed)"
  result: "63.0 ± 1.9%"
